# Tested On: BaF3 cell lines stably transfected with kinase EGFR Del/T790M (Homo sapiens, UniProt P00533, T790M, cells depend on it, form not given)
# Sequence (P00533 with tags, fused parts or gaps DEL746-750/T790M, form open): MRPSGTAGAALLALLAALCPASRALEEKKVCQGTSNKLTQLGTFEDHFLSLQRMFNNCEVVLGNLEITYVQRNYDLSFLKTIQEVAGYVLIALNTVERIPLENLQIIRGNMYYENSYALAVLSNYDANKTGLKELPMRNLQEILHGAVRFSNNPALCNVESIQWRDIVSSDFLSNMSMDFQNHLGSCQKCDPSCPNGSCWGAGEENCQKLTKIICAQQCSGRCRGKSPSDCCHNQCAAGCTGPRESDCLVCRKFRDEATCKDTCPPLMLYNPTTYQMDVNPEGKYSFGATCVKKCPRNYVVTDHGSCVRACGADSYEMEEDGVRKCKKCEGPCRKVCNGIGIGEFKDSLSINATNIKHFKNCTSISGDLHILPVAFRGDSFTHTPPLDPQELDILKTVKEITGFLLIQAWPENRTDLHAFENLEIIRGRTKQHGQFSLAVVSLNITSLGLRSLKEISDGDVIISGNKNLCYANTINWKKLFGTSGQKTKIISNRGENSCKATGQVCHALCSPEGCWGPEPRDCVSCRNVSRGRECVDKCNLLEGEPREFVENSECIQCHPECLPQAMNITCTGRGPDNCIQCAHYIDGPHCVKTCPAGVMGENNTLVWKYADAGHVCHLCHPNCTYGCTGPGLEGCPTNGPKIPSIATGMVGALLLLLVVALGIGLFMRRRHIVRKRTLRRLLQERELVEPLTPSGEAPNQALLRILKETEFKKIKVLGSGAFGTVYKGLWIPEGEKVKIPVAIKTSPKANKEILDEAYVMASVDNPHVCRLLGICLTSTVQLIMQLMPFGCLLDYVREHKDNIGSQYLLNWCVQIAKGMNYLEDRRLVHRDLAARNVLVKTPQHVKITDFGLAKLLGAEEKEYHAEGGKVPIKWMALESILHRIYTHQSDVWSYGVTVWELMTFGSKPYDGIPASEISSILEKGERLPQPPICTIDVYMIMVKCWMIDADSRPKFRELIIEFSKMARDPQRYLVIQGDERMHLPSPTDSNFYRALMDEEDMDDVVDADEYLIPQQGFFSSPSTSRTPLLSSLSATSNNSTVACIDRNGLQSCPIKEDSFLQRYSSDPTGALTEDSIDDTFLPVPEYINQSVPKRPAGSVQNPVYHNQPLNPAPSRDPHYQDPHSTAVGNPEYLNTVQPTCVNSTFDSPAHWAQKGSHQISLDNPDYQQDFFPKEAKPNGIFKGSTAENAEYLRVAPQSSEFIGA
# Test Method Notes: Growth inhibition of BaF3 cell line stably transfected with kinase EGFR Del/T790M (MTS)
# Type: cell-based
# Experimental Setup: 48 h, read-out: growth inhibitory activity IC50, Del/T790M

[
  {
    "Compound": "C=Cc1cnc(Nc2cc(F)c(N3CCC(N4CCN(C)CC4)CC3)c(F)c2)nc1Nc1ccc2nccnc2c1S(=O)(=O)NC",
    "GI50": "50 to 500 nM"
  },
  {
    "Compound": "C=Cc1cnc(Nc2cc(CC)c(N3CCC(N4CCN(C)CC4)CC3)cc2OC)nc1Nc1ccc2nccnc2c1NS(C)(=O)=O",
    "GI50": "≤ 50 nM"
  },
  {
    "Compound": "C=Cc1cnc(Nc2cc(CC)c(N3CCC4(CC3)CC(N(C)C)C4)cc2OC)nc1Nc1ccc2nccnc2c1N(C)S(C)(=O)=O",
    "GI50": "50 to 500 nM"
  },
  {
    "Compound": "C=Cc1cnc(Nc2ccc(N3CCC(N4CCN(C)CC4)CC3)c(CC)c2)nc1Nc1ccc2nccnc2c1NS(C)(=O)=O",
    "GI50": "≤ 50 nM"
  },
  {
    "Compound": "C=Cc1cnc(Nc2cc(CC)c(N3CCC(N4CCN(C)CC4)CC3)cc2OC)nc1Nc1ccc2nccnc2c1N(C)S(C)(=O)=O [II-1]",
    "GI50": "≤ 50 nM"
  },
  {
    "Compound": "C=Cc1cnc(Nc2cc(CC)c(N3CCC(N4CCN(C)CC4)CC3)cc2OC)nc1Nc1ccc2nccnc2c1P(C)(C)=O",
    "GI50": "≤ 50 nM"
  },
  {
    "Compound": "C=Cc1cnc(Nc2cc(CC)c(N3CCC(N(C)C)C3)cc2OC)nc1Nc1ccc2nccnc2c1N(C)S(C)(=O)=O (centres unmarked)",
    "GI50": "≤ 50 nM"
  },
  {
    "Compound": "C=Cc1cnc(Nc2cc(CC)c(N3CCC(C4CN(C)C4)CC3)cc2OC)nc1Nc1ccc2nccnc2c1N(C)S(C)(=O)=O",
    "GI50": "≤ 50 nM"
  },
  {
    "Compound": "C=Cc1cnc(Nc2cc(C(C)C)c(N3CCC(N4CCN(C)CC4)CC3)cc2OC)nc1Nc1ccc2nccnc2c1S(=O)(=O)C(C)C",
    "GI50": "500 to 2500 nM"
  },
  {
    "Compound": "CCc1cc(Nc2ncc(/C=C/C3CC3)c(Nc3ccc4nccnc4c3P(C)(C)=O)n2)c(OC)cc1N1CCC(N2CCN(C)CC2)CC1",
    "GI50": "50 to 500 nM"
  },
  {
    "Compound": "C=Cc1cnc(Nc2cc(C(C)C)c(N3CCC(N4CCN(C)CC4)CC3)cc2OC)nc1Nc1ccc2nccnc2c1N(C)S(C)(=O)=O",
    "GI50": "50 to 500 nM"
  },
  {
    "Compound": "C=Cc1cnc(Nc2cc(CC)c(N3CCN(C)CC3)cc2OC)nc1Nc1ccc2nccnc2c1N(C)S(C)(=O)=O",
    "GI50": "≤ 50 nM"
  },
  {
    "Compound": "C=Cc1cnc(Nc2cc(CC)c(NCCO)cc2OC)nc1Nc1ccc2nccnc2c1N(C)S(C)(=O)=O",
    "GI50": "500 to 2500 nM"
  },
  {
    "Compound": "C=Cc1cnc(Nc2cc(C)c(N3CCC(N4CCN(C)CC4)CC3)cc2OC)nc1Nc1ccc2nccnc2c1S(C)(=O)=O",
    "GI50": "500 to 2500 nM"
  }
]
